# measurementTarget: PI3Kβ (Homo sapiens)
# Sequence (P42338 whole entry): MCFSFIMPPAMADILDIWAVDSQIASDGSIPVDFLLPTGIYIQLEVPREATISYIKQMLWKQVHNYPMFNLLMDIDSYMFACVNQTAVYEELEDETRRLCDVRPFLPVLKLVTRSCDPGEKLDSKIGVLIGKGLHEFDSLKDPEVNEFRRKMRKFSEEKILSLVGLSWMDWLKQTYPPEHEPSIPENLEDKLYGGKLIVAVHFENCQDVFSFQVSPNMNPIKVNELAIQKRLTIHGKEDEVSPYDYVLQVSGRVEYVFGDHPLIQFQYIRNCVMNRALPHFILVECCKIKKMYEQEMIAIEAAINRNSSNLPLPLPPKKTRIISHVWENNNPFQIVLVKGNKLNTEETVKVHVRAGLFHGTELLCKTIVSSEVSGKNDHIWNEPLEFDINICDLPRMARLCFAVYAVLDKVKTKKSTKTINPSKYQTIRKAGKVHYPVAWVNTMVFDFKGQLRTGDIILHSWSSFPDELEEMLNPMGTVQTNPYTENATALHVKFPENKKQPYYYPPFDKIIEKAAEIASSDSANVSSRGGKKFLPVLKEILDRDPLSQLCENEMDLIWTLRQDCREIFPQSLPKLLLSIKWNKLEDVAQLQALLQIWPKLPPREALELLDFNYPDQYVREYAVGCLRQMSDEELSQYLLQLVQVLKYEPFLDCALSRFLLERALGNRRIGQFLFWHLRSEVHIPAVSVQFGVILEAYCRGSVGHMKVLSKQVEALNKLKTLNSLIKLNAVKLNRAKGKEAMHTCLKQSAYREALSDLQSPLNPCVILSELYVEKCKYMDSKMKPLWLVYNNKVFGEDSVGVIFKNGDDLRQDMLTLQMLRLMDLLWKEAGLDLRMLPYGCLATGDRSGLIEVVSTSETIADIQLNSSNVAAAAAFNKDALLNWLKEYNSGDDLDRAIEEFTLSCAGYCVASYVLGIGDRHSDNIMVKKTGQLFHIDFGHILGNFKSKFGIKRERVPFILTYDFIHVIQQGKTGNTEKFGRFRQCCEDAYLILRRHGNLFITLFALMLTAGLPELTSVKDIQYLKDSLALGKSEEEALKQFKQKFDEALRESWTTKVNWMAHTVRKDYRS
# Sequence (P27986 whole entry partner): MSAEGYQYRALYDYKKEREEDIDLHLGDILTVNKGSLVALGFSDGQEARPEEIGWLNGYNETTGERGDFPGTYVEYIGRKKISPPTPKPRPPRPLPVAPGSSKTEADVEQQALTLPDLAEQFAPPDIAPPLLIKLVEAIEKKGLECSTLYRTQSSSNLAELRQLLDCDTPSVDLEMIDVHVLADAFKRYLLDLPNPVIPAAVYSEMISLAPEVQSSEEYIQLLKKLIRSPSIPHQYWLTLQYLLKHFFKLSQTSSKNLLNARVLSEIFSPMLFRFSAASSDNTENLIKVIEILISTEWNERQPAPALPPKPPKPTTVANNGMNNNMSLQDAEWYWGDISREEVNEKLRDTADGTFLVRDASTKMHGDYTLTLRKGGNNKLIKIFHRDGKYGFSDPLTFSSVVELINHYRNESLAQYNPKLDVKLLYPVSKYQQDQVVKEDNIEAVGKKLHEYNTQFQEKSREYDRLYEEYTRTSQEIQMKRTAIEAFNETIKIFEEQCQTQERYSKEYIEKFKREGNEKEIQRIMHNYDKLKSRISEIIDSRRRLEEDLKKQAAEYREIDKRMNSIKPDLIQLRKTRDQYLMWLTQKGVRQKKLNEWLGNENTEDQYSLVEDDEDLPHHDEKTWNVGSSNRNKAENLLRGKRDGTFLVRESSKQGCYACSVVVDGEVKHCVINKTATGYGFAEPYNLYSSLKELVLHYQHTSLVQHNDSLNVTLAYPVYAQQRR
# assayText: Kinase experiment (ADP-Glo, luminescence), PI3Kβ
# Format: biochemical
# assayContext: final concentration of ATP 10 μM; read-out: IC50 of compound to PI3K (nM) β
readoutType: IC50

Worked cases, answers included:
                                   compound  readouttype  observedvalue
0  CC(C)C1C(=O)N(C)C(=O)N1c1cn2c(n1)-c1ccc(N3CCC[C@H]3C(N)=O)cc1OCC2 (some centres unmarked) [Example 1]         IC50       > 600 nM
1  CC(C)C1C(=O)N(C2CC2)C(=O)N1c1cn2c(n1)-c1ccc(N3CCC[C@H]3C(N)=O)cc1OCC2 (some centres unmarked) [Example 2]         IC50       > 600 nM
2  CC(C)C1C(=O)N(c2ccc(F)cc2)C(=O)N1c1cn2c(n1)-c1ccc(N3CCC[C@H]3C(N)=O)cc1OCC2 (some centres unmarked) [Example 4]         IC50       > 600 nM

Input: Looking for the measured IC50 of CC(C)[C@H]1C(=O)N(C2CC2)C(=O)N1c1cn2c(n1)-c1ccc(N3CCC[C@H]3C(N)=O)cc1OCC2 [Example 33] , can you help?
Output: > 600 nM

Input: // IC50 lookup, key: CC(C)[C@@H]1C(=O)N(C2CC2)C(=O)N1c1cn2c(n1)-c1ccc(N3CCC[C@H]3C(N)=O)cc1OCC2 [Example 32]
Output: 300 to 600 nM
